Tested on: OVCAR-3 ovarian
Assay: NCI tumour cell line growth inhibition, 48 h; in the data active = GI50 below about 0.43 µM; inactive = the rest
Log the outcome using a class from TRUE (active), FALSE (inactive)

MOLECULE	GROUP LABEL
CCOC(=O)Cn1c(C)c(/C=N/NC(=O)c2cc3c(ccc4ccccc43)o2)c2ccccc21	TRUE
O=C(O)c1cc(-c2ccc(-c3ccc(-c4cc(C(=O)O)c5cc(Cl)ccc5n4)cc3)cc2)nc2ccc(Cl)cc12	FALSE
O=C(NNc1ccccc1)OCc1ccccc1	FALSE
Nc1c(C(=O)c2cccc(C#CCN3CCOCC3)c2)cnn1-c1ccc(F)cc1	FALSE
CCC[CH2][Ge]([CH2]CCC)([CH2]CCC)[O]C(=O)C(O)c1ccccc1 (configuration not stated)	FALSE

# lookup: test call for ICCC(c1ccccc1)(c1ccccc1)c1ccccc1
FALSE

Same lookup for O=C(NC(=S)NNC(=S)NNc1ccccc1)c1ccccc1 , please.
FALSE

* * *

Test system: SF-268 CNS
Assay: NCI tumour cell line growth inhibition, 48 h; in the data active = GI50 below about 0.43 µM; inactive = the rest
Log the outcome using a class from Yes (active), No (inactive)

Solved entries:
COMPOUND	GROUP LABEL
Nc1ncnc2c(C3OC(CO)C(O)C3O)scc12 (stereo not given)	No
c1ccc(-c2nnc(Nc3ccc4c(c3)OCCO4)o2)c(NCc2ccncc2)c1	Yes
C/C1=C\C/C=C(\C)[C@H]2CC(CC/C(C)=C/CC1)[C@@](C)(CO)O2	No

# lookup: test call for CCN(CC)CCCOc1cc(O)c2c(=O)cc(-c3ccccc3)oc2c1
No

Same lookup for CCC[CH2][Sn]([CH2]CCC)([O]C(=O)c1cc(OC)c(OC)cc1OC)[O]C(=O)c1cc(OC)c(OC)cc1OC , please.
No

Same lookup for O=C(O)c1cc(-c2ccc(-c3ccc(-c4cc(C(=O)O)c5cc(Cl)ccc5n4)cc3)cc2)nc2ccc(Cl)cc12 , please.
No

* * *

Test system: DMS 273 small cell lung
Experiment: NCI tumour cell line growth inhibition, 48 h
# TGI listing for each entry below

What TGI value was documented for this compound, CN(C)CC/C(=N\Nc1ccc(Cl)c(Cl)c1)c1ccccc1 ?
3.23 µM

* * *

# GI50 listing for each entry below
System: A498 renal
Assay: NCI tumour cell line growth inhibition, 48 h

Some solved entries appear below for comparison.
COMPOUND	GI50
COc1cc(Cn2ccc3c2-c2oncc2CC3)cc(OC)c1	1.16 µM
COc1ccc(/C=C/C(=O)c2ccc3cc(OC)c(OC)cc3c2)cc1OC	2.66 µM
Nc1c(C(=O)c2cccc(C#CCN3CCOCC3)c2)cnn1-c1ccc(F)cc1	11.1 µM

Let us examine a further case.
What GI50 value was documented for this compound, ClC1=NC(Cl)C(Cl)=N/C1=N\c1ncn[nH]1 (stereo not given) ?
17.8 µM

* * *

Tested on: SK-MEL-5 melanoma
Assay: NCI tumour cell line growth inhibition, 48 h
VALUE TYPE: TGI (µM)
Express your answer in µM, writing the number without its unit.

Some solved entries appear below for comparison.
COMPOUND	VALUE TYPE	ENDPOINT VALUE
CC[N+]1(C)CCC(O)(c2ccccc2)C(C(=O)c2ccccc2)C1 (stereo unspecified)	TGI	33.6
CN1C(=O)c2c(c3c4ccccc4n(C4OC(CO)C(O)C(O)C4O)c3c3[nH]c4ccccc4c23)C1=O (stereo unspecified)	TGI	3.29
CC(C)[Si](OC1=C(C(=O)N(C)c2ccccc2Cl)CCCC1)(C(C)C)C(C)C	TGI	27.5

Let us examine a further case.
What TGI value was documented for this compound, c1ccc(N=c2sc3ccccc3sc2=Nc2ccccc2)cc1 ?
5.14
